Molecular target: SPRY domain-containing SOCS box protein 2 (Mus musculus)
Sequence (whole entry): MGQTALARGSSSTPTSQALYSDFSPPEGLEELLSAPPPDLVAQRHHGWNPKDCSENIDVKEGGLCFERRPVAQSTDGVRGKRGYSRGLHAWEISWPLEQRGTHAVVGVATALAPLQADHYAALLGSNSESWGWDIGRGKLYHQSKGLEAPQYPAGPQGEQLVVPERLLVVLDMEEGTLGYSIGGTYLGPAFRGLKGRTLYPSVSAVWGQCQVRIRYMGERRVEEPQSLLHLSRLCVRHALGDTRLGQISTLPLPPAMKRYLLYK
Experiment: Binding affinity to recombinant GST-tagged mouse SPSB2 (12 to 224 residues) expressed in Escherichia coli BL21 (DE3) assessed as association rate by SPR analysis
MEASUREMENT_KIND: K (×10⁵ /M/s)

{"SMILES_REPR": "CC[C@H](C)[C@@H]1NC(=O)[C@@H](CC(=O)O)OCC(=O)N(C)NC(=O)[C@H](CC(N)=O)NC(=O)[C@H](CC(N)=O)NC(=O)[C@@H](CC(N)=O)NC1=O", "UNIT": "×10⁵ /M/s", "VALUE_REPORTED": 11.9}

(P) CC[C@@H](C)[C@@H]1NC(=O)[C@H](CC(=O)O)OCCNC(=O)[C@@H](CC(N)=O)NC(=O)[C@@H](CC(N)=O)NC(=O)[C@@H](CC(N)=O)NC1=O
(Q) CC[C@H](C)[C@@H]1NC(=O)[C@@H](CC(=O)O)NC(=O)c2ccccc2NC(=O)[C@H](CC(N)=O)NC(=O)[C@H](CC(N)=O)NC(=O)[C@@H](CC(N)=O)NC1=O
Query string: Which record shows the lower K: the first, P , or the second, Q ? Field: selected label. Fill in the label of the entry you choose.
Result string: P

====

Target: SPRY domain-containing SOCS box protein 2 (Mus musculus)
Sequence (O88838 whole entry): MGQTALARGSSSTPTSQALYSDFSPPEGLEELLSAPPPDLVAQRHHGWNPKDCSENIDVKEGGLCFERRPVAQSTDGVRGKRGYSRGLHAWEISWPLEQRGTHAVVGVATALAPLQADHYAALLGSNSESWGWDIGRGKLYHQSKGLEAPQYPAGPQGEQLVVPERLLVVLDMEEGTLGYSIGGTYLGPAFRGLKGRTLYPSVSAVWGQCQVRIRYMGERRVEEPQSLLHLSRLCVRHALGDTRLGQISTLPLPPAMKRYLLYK
Test: Binding affinity to recombinant GST-tagged mouse SPSB2 (12 to 224 residues) expressed in Escherichia coli BL21 (DE3) by SPR analysis
MEASUREMENT_KIND: Kd (nM)

{"SMILES_REPR": "CC[C@H](C)[C@@H]1NC(=O)[C@@H](CC(=O)O)OCc2ccccc2NC(=O)[C@H](CC(N)=O)NC(=O)[C@H](CC(N)=O)NC(=O)[C@H](CC(N)=O)NC1=O", "VALUE_REPORTED": 29}
{"SMILES_REPR": "CC[C@H](C)[C@@H]1NC(=O)[C@H](CC(=O)O)OCCNC(=O)[C@H](CC(N)=O)NC(=O)[C@H](CC(N)=O)NC(=O)[C@H](CC(N)=O)NC1=O", "VALUE_REPORTED": 465}

(a) CC[C@H](C)[C@@H]1NC(=O)[C@H](CC(=O)O)NC(=O)c2ccccc2NC(=O)[C@H](CC(N)=O)NC(=O)[C@H](CC(N)=O)NC(=O)[C@H](CC(N)=O)NC1=O
(b) CC[C@H](C)[C@@H]1NC(=O)[C@@H](CC(=O)O)OCC(=O)N(C)NC(=O)[C@H](CC(N)=O)NC(=O)[C@H](CC(N)=O)NC(=O)[C@H](CC(N)=O)NC1=O
Query string: Which record shows the lower Kd: the first, a , or the second, b ? Field: selected label. Fill in the label of the entry you choose.
Result string: a
(a: 54 nM, b: 99 nM)
